This collection of values is drawn from patent US20110224231A1.

# targetEntity: soluble human BACE (Homo sapiens, UniProt P56817)
# Construct: cells secreting human recombinant soluble BACE; made in house; conditioned medium
# Sequence (P56817 46-457 limits assumed): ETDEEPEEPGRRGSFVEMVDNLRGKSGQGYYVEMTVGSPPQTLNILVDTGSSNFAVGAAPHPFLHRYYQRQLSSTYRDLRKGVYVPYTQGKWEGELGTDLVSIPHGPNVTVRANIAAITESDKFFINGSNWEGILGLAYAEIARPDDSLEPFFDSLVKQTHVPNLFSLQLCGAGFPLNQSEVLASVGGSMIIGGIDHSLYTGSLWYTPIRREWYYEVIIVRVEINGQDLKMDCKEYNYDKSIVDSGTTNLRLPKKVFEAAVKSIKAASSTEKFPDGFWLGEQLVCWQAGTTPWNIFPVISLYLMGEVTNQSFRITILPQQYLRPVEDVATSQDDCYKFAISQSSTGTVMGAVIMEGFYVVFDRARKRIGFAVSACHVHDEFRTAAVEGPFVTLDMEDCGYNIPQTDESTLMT
# assayName: BACE activity Cell Free Assay (ELISA of cleaved synthetic APP substrate)
# Format: biochemical
Structures can show the parent of a compound that is named as a salt.
# IC50 values compiled below

Example compounds with recorded IC50:
compound: CC(C)Oc1cccc(CN2CC[C@]3(C=CC(=O)N3c3cnn(C)c3)C[C@@H]2C)c1 [#113]
IC50: 10 to 100 µM
--
compound: CC(C)Oc1cccc(CN2CC[C@]3(CC(F)C(=O)N3c3cccc(F)c3)C[C@@H]2C)c1 (mixture of isomers) [Example 90, formate salt]
IC50: 10 to 100 µM
--
compound: CC(C)NS(=O)(=O)c1cccc(CN2CCC3(C=CC(=O)N3c3cccc(F)c3)CC2C)c1 (racemic) [Example 28]
IC50: 10 to 100 µM

Let's switch to this compound now.
## Input What IC50 value was documented for this compound, Cc1cc(CN2CCC3(CCC(=O)N3c3cccc(F)c3)CC2C)ccc1O (racemic) [Example 38] ?
## Output 10 to 100 µM

###

# targetEntity: soluble human BACE (Homo sapiens, UniProt P56817)
# Construct: cells secreting human recombinant soluble BACE; made in house; conditioned medium
# assayName: BACE activity Cell Free Assay (ELISA of cleaved synthetic APP substrate)
# Assay type: biochemical
# testConditions: Table 4; cell free, soluble human BACE, pH 4.5, 3 μM substrate; read-out: BACE Activity (Cell Free Assay IC50)
Measured IC50 values are reported for all entries that follow.

Would you please look over these solved cases?
molecule: CC(C)Oc1cccc(CN2CC[C@]3(C=CC(=O)N3c3ccc(F)cn3)C[C@@H]2C)c1 [#124]
IC50: 10 to 100 µM

molecule: Cc1cncc(N2C(=O)C=C[C@]23CCN(Cc2cccc(OC(C)C)c2)[C@@H](C)C3)n1 [#126]
IC50: 10 to 100 µM

molecule: CC(C)Oc1cccc(CN2CC[C@]3(C=CC(=O)N3c3ccc(Cl)cn3)C[C@@H]2C)c1 [#104]
IC50: 10 to 100 µM

molecule: CC(C)Oc1cccc(CN2CC[C@]3(C=CC(=O)N3c3cccc(C(F)(F)F)n3)C[C@@H]2C)c1 [#125]
IC50: 10 to 100 µM

With those in mind, consider the next molecule.
## Input Need IC50, item Cc1ccc(N2C(=O)C=C[C@]23CCN(Cc2cccc(OC(C)C)c2)[C@@H](C)C3)nc1 [#105]
## Output 10 to 100 µM

###

# targetEntity: soluble human BACE (Homo sapiens, UniProt P56817)
# Construct: cells secreting human recombinant soluble BACE; made in house; conditioned medium
# assayName: BACE activity Cell Free Assay (ELISA of cleaved synthetic APP substrate)
# Assay type: biochemical
pIC50: −log10 of the molar value. Structures can show the parent of a compound that is named as a salt.
readoutLabel: pIC50

compound: CC1CC2(C=CC(=O)N2c2cccc(F)c2)CCN1Cc1cccc(OC2CCCC2)c1 (racemic)
readoutLabel: pIC50
endpointValue: 4.00 to 5.00

compound: COc1ccc(F)c(CN2CCC3(C=CC(=O)N3c3cccc(F)c3)CC2C)c1 (racemic)
readoutLabel: pIC50
endpointValue: 3.52 to 4.00

compound: CC1CC2(CCC(=O)N2c2cccc(F)c2)CCN1Cc1cccc(-n2cccn2)c1 (racemic)
readoutLabel: pIC50
endpointValue: 3.52 to 4.00

compound: COc1ccc(Oc2cccc(CN3CCC4(C=CC(=O)N4c4cccc(F)c4)CC3C)c2)cc1 (racemic)
readoutLabel: pIC50
endpointValue: 4.00 to 5.00

compound: CC(C)Oc1cc(CN2CC[C@]3(C=C(c4ccccc4)C(=O)N3c3cccc(F)c3)C[C@@H]2C)ccc1O [Example @97, hydrochloride salt]
readoutLabel: pIC50
endpointValue: 5.00 to 6.00

compound: Cc1ccsc1-c1cc(CN2CC[C@]3(C=CC(=O)N3c3cccc(F)c3)C[C@@H]2C)ccc1O
readoutLabel: pIC50
endpointValue: 6.00 to 9.00

compound: CC(=O)Nc1ccc(CN2CCC3(CCC(=O)N3c3cccc(F)c3)CC2C)cc1 (racemic)
readoutLabel: pIC50
endpointValue: 4.00 to 5.00

compound: CC1CC2(C=CC(=O)N2c2cccc(F)c2)CCN1Cc1ccc(O)c(Cl)c1 (racemic)
readoutLabel: pIC50
endpointValue: 5.00 to 6.00

compound: CC1CC2(CCC(=O)N2c2cccc(F)c2)CCN1Cc1cccc(S(=O)(=O)N2CCCC2)c1 (racemic)
readoutLabel: pIC50
endpointValue: 3.52 to 4.00

compound: CC(C)Oc1cccc(CN2CC[C@]3(CCC(=O)N3c3cccc(F)c3)C[C@@H]2C)c1 (racemic)
readoutLabel: pIC50
endpointValue: 4.00 to 5.00

## Input Which pIC50 is reported with soluble human BACE (Homo sapiens, UniProt P56817) for this entry: CC1CC2(C=CC(=O)N2c2cccc(F)c2)CCN1Cc1c[nH]c2ccc(C#N)cc12 (racemic) ?
## Output 4.00 to 5.00

## Input Write down the reported pIC50 of CC1CC2(C=CC(=O)N2c2cccc(F)c2)CCN1Cc1cc(Br)ccc1F (racemic) , test system: soluble human BACE (Homo sapiens, UniProt P56817).
## Output 4.00 to 5.00

## Input Lookup: pIC50 / soluble human BACE (Homo sapiens, UniProt P56817) / CC1CC2(C=CC(=O)N2c2cccc(F)c2)CCN1Cc1cccc(-c2ccccn2)c1 (racemic)
## Output 4.00 to 5.00

## Input Test system soluble human BACE (Homo sapiens, UniProt P56817); read-out pIC50; what value for CC1CC2(CCC(=O)N2c2cccc(F)c2)CCN1Cc1ccc(O)cc1 (racemic) ?
## Output 4.00 to 5.00

## Input Missing value: pIC50, soluble human BACE (Homo sapiens, UniProt P56817), entry CCNc1ccc(CN2CCC3(C=CC(=O)N3c3cccc(F)c3)CC2C)cn1 (racemic) . Fill in?
## Output 3.52 to 4.00

## Input Value wanted: pIC50 (soluble human BACE (Homo sapiens, UniProt P56817)) of entry CC1CC2(C=CC(=O)N2c2cccc(F)c2)CCN1Cc1ccnn1CC(F)(F)F (racemic)
## Output 4.00 to 5.00

## Input soluble human BACE (Homo sapiens, UniProt P56817) / pIC50 / CCCn1nccc1CN1CCC2(C=CC(=O)N2c2cccc(F)c2)CC1C (racemic) : value?
## Output 4.00 to 5.00

## Input Form entry - test system: soluble human BACE (Homo sapiens, UniProt P56817); read-out: pIC50; compound: CC1CC2(C=CC(=O)N2c2cccc(F)c2)CCN1Cc1ccc(O)cc1O (racemic)
## Output 3.52 to 4.00

## Input Lookup: pIC50 / soluble human BACE (Homo sapiens, UniProt P56817) / C[C@H]1C[C@@]2(C=CC(=O)N2c2cccc(F)c2)CCN1Cc1scnc1CC1CCC1
## Output 6.00 to 9.00

## Input What value of pIC50 on soluble human BACE (Homo sapiens, UniProt P56817) does CC1CC2(CCC(=O)N2c2cccc(F)c2)CCN1Cc1ccc(O)c(C#N)c1 (racemic) have?
## Output 4.00 to 5.00

## Input Lookup: pIC50 / soluble human BACE (Homo sapiens, UniProt P56817) / CC(C)COc1cccc(CN2CCC3(C=CC(=O)N3c3cccc(F)c3)CC2C)c1 (racemic)
## Output 4.00 to 5.00

## Input # get_value(readout= pIC50, system= soluble human BACE (Homo sapiens, UniProt P56817)) for CCOc1cccc(CN2CCC3(CCC(=O)N3c3cccc(F)c3)CC2C)c1 (racemic)
## Output 3.52 to 4.00

## Input Query the reported pIC50 for soluble human BACE (Homo sapiens, UniProt P56817); item: CC1CC2(CCC(=O)N2c2cccc(F)c2)CCN1Cc1ccc2[nH]ccc2c1 (racemic)
## Output 3.52 to 4.00

###

# targetEntity: soluble human BACE (Homo sapiens)
# Construct: cells secreting human recombinant soluble BACE; made in house; conditioned medium
# assayName: BACE activity Cell Free Assay (ELISA of cleaved synthetic APP substrate)
# Format: biochemical
pIC50: −log10 of the molar value. Structures can show the parent of a compound that is named as a salt.
readoutLabel: pIC50

Recorded pIC50, per entry:
compound: CC1CC2(CCC(=O)N2c2cccc(F)c2)CCN1Cc1ccnn1CC(F)(F)F (racemic)
pIC50: 3.52 to 4.00
//
compound: CC(C)Oc1cccc(CN2CC[C@]3(CC(C)C(=O)N3c3cccc(F)c3)C[C@@H]2C)c1 (stereo partly shown) [Example @96, hydrochloride salt]
pIC50: 4.00 to 5.00
//
compound: CC1CC2(CCC(=O)N2c2cccc(F)c2)CCN1Cc1c[nH]c2cc(F)ccc12 (racemic)
pIC50: 3.52 to 4.00

## Input Quick one: pIC50 for C[C@H]1C[C@@]2(C=CC(=O)N2c2cnccn2)CCN1Cc1scnc1CC1CCC1 ?
## Output 5.00 to 6.00
